Cited source: paper PMC5700166

# Experimental System: GST-Nv-NF-kB (Ser allele) (Nematostella vectensis, UniProt A7UNT2 2-411)
# Sequence: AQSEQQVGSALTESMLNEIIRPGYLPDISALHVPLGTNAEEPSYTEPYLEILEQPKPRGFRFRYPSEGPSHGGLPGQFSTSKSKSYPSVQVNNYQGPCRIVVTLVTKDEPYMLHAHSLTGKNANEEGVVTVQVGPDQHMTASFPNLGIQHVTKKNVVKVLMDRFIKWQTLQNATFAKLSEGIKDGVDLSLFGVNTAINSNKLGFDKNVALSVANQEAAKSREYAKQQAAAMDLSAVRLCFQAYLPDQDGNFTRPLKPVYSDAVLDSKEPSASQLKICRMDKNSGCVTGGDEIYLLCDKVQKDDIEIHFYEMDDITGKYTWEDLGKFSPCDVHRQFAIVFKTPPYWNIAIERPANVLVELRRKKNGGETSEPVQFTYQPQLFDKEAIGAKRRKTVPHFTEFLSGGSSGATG
# Protocol Text: protein-binding microarray (PBM); PBM: ~300 nM protein, 6 mM HEPES pH 7.8, 80 mM KCl, 0.5 mM EDTA, 0.5 mM EGTA, 6% glycerol, 35 ng/ul poly-dIdC, 1% milk, 1 h, room temperature; Ap Aiptasia and Nv Nematostella (sea anemones) / Co Capsaspora / Aq Amphimedon (sponge) / Dm Drosophila / Hu human; RHD is the Rel homology domain; high values mean tight binding
# Conditions Used: dsDNA, one strand shown
Assay Readout: binding signal (z-score)

- CCGATTAACATCAATATCCCCCATGATGTTAATCGGGTCTTGATTCGCTTGACGCTGCTG: 5.43
- CCGATTAACATCACTCTTTTCCCTGATGTTAATCGGGTCTTGATTCGCTTGACGCTGCTG: 4.46
- CCGATTAACATCACGAAAGTCCCTGATGTTAATCGGGTCTTGATTCGCTTGACGCTGCTG: 7.54
- CCGATTAACATCACGGTTATTCCTGATGTTAATCGGGTCTTGATTCGCTTGACGCTGCTG: 2.15
- CCGATTAACATCAAGGGAACCCCTGATGTTAATCGGGTCTTGATTCGCTTGACGCTGCTG: 1.95
- CCGATTAACATCAAAGTTTCCCCTGATGTTAATCGGGTCTTGATTCGCTTGACGCTGCTG: 12
- CCGATTAACATCAAGAACCCCCTTGATGTTAATCGGGTCTTGATTCGCTTGACGCTGCTG: 7.11
- CCGATTAACATCAAAAGATCCCCTGATGTTAATCGGGTCTTGATTCGCTTGACGCTGCTG: 9.3
- CCGATTAACATCAATCTTCCCCCTGATGTTAATCGGGTCTTGATTCGCTTGACGCTGCTG: 7.73
- CCGATTAACATCAAGGGGACTTCTGATGTTAATCGGGTCTTGATTCGCTTGACGCTGCTG: 7.54
- CCGATTAACATCAAAAGTTCCCCTGATGTTAATCGGGTCTTGATTCGCTTGACGCTGCTG: 10.9
- CCGATTAACATCAACATTACCCCTGATGTTAATCGGGTCTTGATTCGCTTGACGCTGCTG: 3.43
- CCGATTAACATCAAATATCCCCATGATGTTAATCGGGTCTTGATTCGCTTGACGCTGCTG: 7.36
- CCGATTAACATCAAACATCCCCTTGATGTTAATCGGGTCTTGATTCGCTTGACGCTGCTG: 7.29
- CCGATTAACATCAATTCCCAACCTGATGTTAATCGGGTCTTGATTCGCTTGACGCTGCTG: 1.9
- CCGATTAACATCACGGGGGAAAATGATGTTAATCGGGTCTTGATTCGCTTGACGCTGCTG: 9.47
- CCGATTAACATCAAAATCCCCCTTGATGTTAATCGGGTCTTGATTCGCTTGACGCTGCTG: 12.1
- CCGATTAACATCAAGTAACCCCCTGATGTTAATCGGGTCTTGATTCGCTTGACGCTGCTG: 4.98
